Please go through the items and note down their percent_rel_axenic.
system: filter-sterile supernatant of Rhodanobacter R179 (secreted peptidase(s)); assay: Peptide quantification by mass spectrometry after incubation in cell-free supernatant of Rhodanobacter R179; type: in vitro ADME; conditions: axenic XVM2 medium control, incubation 1h, peptide relative to axenic, replicate 3
Where no end group is shown, it is not given here.
One number for each entry, in %.

Some substances with recorded percent_rel_axenic:
* Ac-SKEKFERTKPHVNVGTIG [elf18] | 100.108
* ATKVKAKQRGKEKVSSGRPGQHN [AtPep1] | 100.296
* QRLSTGSRINSAKDDAAGLQIA [flg22] | 120.41

Shifting focus to the substance that follows.
Please look at D-Y(SO3H)-GDPSANPKHDPGV-Hyp-Hyp-S [PSY1, root-growth-promoting sulfated PSY1 peptide] and tell me its recorded percent_rel_axenic on filter-sterile supernatant of Rhodanobacter R179 (secreted peptidase(s)).
68.27

---

tested on: filter-sterile supernatant of Rhodanobacter R179 (secreted peptidase(s)); experiment: Peptide quantification by mass spectrometry after incubation in cell-free supernatant of Rhodanobacter R179; type: in vitro ADME; conditions: R179 dssAB mutant supernatant, XVM2 medium, incubation 1h, MS1 precursor area, replicate 3
Where no end group is shown, it is not given here.
endpoint: Log10(total_area_MS1)
Numbers only.

Some substances with recorded Log10(total_area_MS1):
- Ac-SKEKFERTKPHVNVGTIG [elf18]: 0
- QRLSTGSRINSAKDDAAGLQIA [flg22]: 0
- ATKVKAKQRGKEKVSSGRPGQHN [AtPep1]: 5.255

Shifting focus to the substance that follows.
Quick one: give measured Log10(total_area_MS1) for D-Y(SO3H)-GDPSANPKHDPGV-Hyp-Hyp-S [PSY1, root-growth-promoting sulfated PSY1 peptide]
9.49

---

tested on: filter-sterile supernatant of Rhodanobacter R179 (secreted peptidase(s)); experiment: Peptide quantification by mass spectrometry after incubation in cell-free supernatant of Rhodanobacter R179; assay type: in vitro ADME; details: R179 wt supernatant, XVM2 medium, incubation 1h, peptide relative to axenic, replicate 1
Where no end group is shown, it is not given here.
endpoint: percent_rel_axenic (%)
Give bare numbers, in %.

Some substances with recorded percent_rel_axenic:
• QRLSTGSRINSAKDDAAGLQIA [flg22] = 0
• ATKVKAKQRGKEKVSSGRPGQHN [AtPep1] = 0.086
• D-Y(SO3H)-GDPSANPKHDPGV-Hyp-Hyp-S [PSY1, root-growth-promoting sulfated PSY1 peptide] = 10.8248

Shifting focus to the substance that follows.
Quick one: give measured percent_rel_axenic for Ac-SKEKFERTKPHVNVGTIG [elf18]
0

---

test system: filter-sterile supernatant of Rhodanobacter R179 (secreted peptidase(s)); test: Peptide quantification by mass spectrometry after incubation in cell-free supernatant of Rhodanobacter R179; format: in vitro ADME; settings: R179 wt supernatant, XVM2 medium, incubation 1h, peptide relative to axenic, replicate 3
Where no end group is shown, it is not given here.
Please go through the items and note down their percent_rel_axenic.
Numbers only, in %.

Some substances with recorded percent_rel_axenic:
* D-Y(SO3H)-GDPSANPKHDPGV-Hyp-Hyp-S [PSY1, root-growth-promoting sulfated PSY1 peptide] | 15.7291
* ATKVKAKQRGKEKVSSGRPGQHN [AtPep1] | 0.0164
* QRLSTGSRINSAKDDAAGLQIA [flg22] | 0

Quick one: give measured percent_rel_axenic for Ac-SKEKFERTKPHVNVGTIG [elf18]
0
